Data provenance is ChEMBL document CHEMBL2424646.

System: HeLa
Test: Cytotoxicity against human HeLa cells after 48 hrs by MTT assay
Type: functional, cell-based
pIC50: −log10 of the molar value.
Provide the reported pIC50 of each item.

Given the compound COC(=O)c1cn(C2COC3=C(Cl)C(=O)C(=O)c4cccc2c43)nn1 (centres undefined) , what is its reported pIC50?
< 4.00

Given the compound O=C1C(=O)c2cccc3c2C(=C1Cl)OCC3n1cc(C2CC2)nn1 (centres undefined) , what is its reported pIC50?
< 4.00

Given the compound COC(=O)c1cn(C2COC3=C(Br)C(=O)C(=O)c4cccc2c43)nn1 (centres undefined) , what is its reported pIC50?
< 4.30

Given the compound COC(=O)c1nnn(C2COC3=C(Br)C(=O)C(=O)c4cccc2c43)c1C(=O)OC (centres undefined) , what is its reported pIC50?
< 4.30

* * *

Tested on: HL-60
Assay: Cytotoxicity against human HL60 cells after 48 hrs by MTT assay
Assay type: functional, cell-based
Details: HL-60, 48 h
pIC50: −log10 of the molar value.
Returns Criterion met if the recorded pIC50 is greater than or equal to 5, and Criterion not met otherwise.

Hello, I need to know if CCOC(=O)c1cn(C2COC3=C(Br)C(=O)C(=O)c4cccc2c43)nn1 (centres undefined) has measured pIC50 not below 5. Thanks!
Criterion not met

Hello, I need to know if CCCc1ccc(-c2cn(C3COC4=C(Br)C(=O)C(=O)c5cccc3c54)nn2)cc1 (centres undefined) has measured pIC50 not below 5. Thanks!
Criterion met

Hello, I need to know if COC(=O)c1nnn(C2COC3=C(Cl)C(=O)C(=O)c4cccc2c43)c1C(=O)OC (centres undefined) has measured pIC50 not below 5. Thanks!
Criterion not met

Hello, I need to know if COC(=O)c1nnn(C2COC3=C(Br)C(=O)C(=O)c4cccc2c43)c1C(=O)OC (centres undefined) has measured pIC50 not below 5. Thanks!
Criterion not met

Hello, I need to know if O=C1C(=O)c2cccc3c2C(=C1Cl)OCC3n1cc(-c2ccccn2)nn1 (centres undefined) has measured pIC50 not below 5. Thanks!
Criterion met

Hello, I need to know if O=C1C(=O)c2cccc3c2C(=C1Cl)OCC3n1cc(C2CC2)nn1 (centres undefined) has measured pIC50 not below 5. Thanks!
Criterion not met

Hello, I need to know if CCCc1ccc(-c2cn(C3COC4=C(Cl)C(=O)C(=O)c5cccc3c54)nn2)cc1 (centres undefined) has measured pIC50 not below 5. Thanks!
Criterion met

Hello, I need to know if COC(=O)c1cn(C2COC3=C(Br)C(=O)C(=O)c4cccc2c43)nn1 (centres undefined) has measured pIC50 not below 5. Thanks!
Criterion not met

Hello, I need to know if O=C1C(=O)c2cccc3c2C(=C1Cl)OCC3n1cc(-c2ccccc2)nn1 (centres undefined) has measured pIC50 not below 5. Thanks!
Criterion not met

Hello, I need to know if COC(=O)c1cn(C2COC3=C(Cl)C(=O)C(=O)c4cccc2c43)nn1 (centres undefined) has measured pIC50 not below 5. Thanks!
Criterion not met

Hello, I need to know if O=C1C(=O)c2cccc3c2C(=C1Br)OCC3n1cc(-c2ccccn2)nn1 (centres undefined) has measured pIC50 not below 5. Thanks!
Criterion met

* * *

Test system: HL-60
Assay: Cytotoxicity against human HL60 cells after 48 hrs by MTT assay
Assay type: functional, cell-based
Conditions: HL-60, 48 h
Measurement kind: IC50 (µM)
Expressed in µM, but write only the number.

Given the molecule O=C1C(=O)c2cccc3c2C(=C1Br)OCC3n1cc(-c2ccc(F)cc2)nn1 (stereo not drawn) , what is its reported IC50?
12.3

Given the molecule O=C1C(=O)c2cccc3c2C(=C1Cl)OCC3n1cc(-c2ccc(Cl)cc2)nn1 (stereo not drawn) , what is its reported IC50?
12.2

Given the molecule CC1=C2OCC(C)c3ccc(C)c(c32)C(=O)C1=O (stereo not drawn) [MANSONONE E] , what is its reported IC50?
10.6
